Target: LFA-1/ICAM-1 interactions (Homo sapiens)
Construct: host or cells: Jurkat or Hut 78 cells
Sequence (P20701 26-1170): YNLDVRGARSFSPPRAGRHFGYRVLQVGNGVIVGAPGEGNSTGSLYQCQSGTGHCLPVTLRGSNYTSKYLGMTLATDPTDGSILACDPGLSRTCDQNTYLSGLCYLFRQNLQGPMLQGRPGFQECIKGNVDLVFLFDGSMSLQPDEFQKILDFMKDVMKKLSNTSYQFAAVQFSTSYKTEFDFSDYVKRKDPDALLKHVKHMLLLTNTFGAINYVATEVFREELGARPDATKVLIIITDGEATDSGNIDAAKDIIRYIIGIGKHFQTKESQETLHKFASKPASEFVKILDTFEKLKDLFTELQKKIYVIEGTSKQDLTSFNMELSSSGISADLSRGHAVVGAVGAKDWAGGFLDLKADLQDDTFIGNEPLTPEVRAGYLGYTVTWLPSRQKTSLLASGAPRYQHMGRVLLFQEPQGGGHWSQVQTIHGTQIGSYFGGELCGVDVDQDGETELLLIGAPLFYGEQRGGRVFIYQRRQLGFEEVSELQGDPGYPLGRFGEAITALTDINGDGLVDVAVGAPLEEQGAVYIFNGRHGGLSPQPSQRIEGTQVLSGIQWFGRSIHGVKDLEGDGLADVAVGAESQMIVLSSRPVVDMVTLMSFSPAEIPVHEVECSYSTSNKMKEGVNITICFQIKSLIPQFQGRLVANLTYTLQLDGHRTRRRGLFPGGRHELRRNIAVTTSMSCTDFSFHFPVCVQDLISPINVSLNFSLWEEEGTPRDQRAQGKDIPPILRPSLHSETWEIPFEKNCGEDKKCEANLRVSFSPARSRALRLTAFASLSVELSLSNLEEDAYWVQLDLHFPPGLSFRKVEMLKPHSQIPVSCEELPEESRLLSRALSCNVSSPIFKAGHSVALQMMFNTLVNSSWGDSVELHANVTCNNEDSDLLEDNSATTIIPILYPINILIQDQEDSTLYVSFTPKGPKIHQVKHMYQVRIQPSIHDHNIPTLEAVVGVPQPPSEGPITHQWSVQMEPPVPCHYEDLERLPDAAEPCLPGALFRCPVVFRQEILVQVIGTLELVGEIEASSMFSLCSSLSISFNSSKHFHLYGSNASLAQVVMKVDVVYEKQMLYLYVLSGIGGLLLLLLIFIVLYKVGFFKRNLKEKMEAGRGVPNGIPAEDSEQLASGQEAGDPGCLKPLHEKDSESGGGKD
Sequence (P05107 23-769 partner): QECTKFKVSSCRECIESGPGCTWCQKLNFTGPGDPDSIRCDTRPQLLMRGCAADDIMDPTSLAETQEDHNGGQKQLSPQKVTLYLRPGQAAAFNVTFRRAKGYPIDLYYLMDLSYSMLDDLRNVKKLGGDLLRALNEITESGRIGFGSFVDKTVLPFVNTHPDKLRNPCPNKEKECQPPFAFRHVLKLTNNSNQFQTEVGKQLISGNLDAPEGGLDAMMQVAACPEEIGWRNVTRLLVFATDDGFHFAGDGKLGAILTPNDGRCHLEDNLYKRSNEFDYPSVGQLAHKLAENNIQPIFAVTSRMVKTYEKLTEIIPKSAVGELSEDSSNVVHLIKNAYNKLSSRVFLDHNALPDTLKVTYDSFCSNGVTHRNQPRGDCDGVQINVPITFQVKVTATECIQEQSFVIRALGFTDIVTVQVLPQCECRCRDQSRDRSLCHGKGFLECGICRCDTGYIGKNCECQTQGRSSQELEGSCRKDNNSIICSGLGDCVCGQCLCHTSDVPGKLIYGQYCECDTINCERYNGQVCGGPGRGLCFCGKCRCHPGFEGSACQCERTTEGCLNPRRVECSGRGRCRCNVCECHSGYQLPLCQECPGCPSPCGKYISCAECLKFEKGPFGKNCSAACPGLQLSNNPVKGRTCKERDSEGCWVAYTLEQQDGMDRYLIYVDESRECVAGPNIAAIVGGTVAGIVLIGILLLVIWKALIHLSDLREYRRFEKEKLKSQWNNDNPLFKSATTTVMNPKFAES
Experiment: Jurkat or Hut 78 cell adhesion to ICAM-1
Format: cell-based
Details: Jurkat cells, adhesion to ICAM-1; read-out: IC50 in the Jurkat Cell Assay
result.type: pIC50
One number for each entry, as −log10 of the molar value.

molecule	data.value
CC[C@H](C)C(=O)O[C@H]1C[C@@H](C)C=C2C=C[C@H](C)[C@H](CCC(O)CC(O)CC(=O)NCc3ccccc3OC)[C@H]21 (some centres unmarked) [Example 15]	5.66

Q: State the recorded pIC50 for this entry: CCC(C)C(=O)OC1CC(C)C=C2C=CC(C)C(CCC(O)CC(CC(=O)NCCO)NCCO)C21 (centres unmarked) [Example 6]
Result: 5.40

The values you see were collected from patent US6630492B1.
